EXPERIMENTAL_PARAMETERS: in ethanol, 288.15 K
QUANTITY_KIND: solubility (mole fraction)

>  <COMPOUND>
OC[C@H]1O[C@H](O[C@H]2O[C@H](CO)[C@@H](O)[C@H](O)[C@H]2O)[C@H](O)[C@@H](O)[C@@H]1O

>  <READOUT_VALUE>
0.000652

$$$$

---

EXPERIMENTAL_PARAMETERS: in water, 303.15 K

>  <COMPOUND>
OC[C@H]1O[C@H](O[C@H]2O[C@H](CO)[C@@H](O)[C@H](O)[C@H]2O)[C@H](O)[C@@H](O)[C@@H]1O

>  <solubility (mole fraction)>
0.0545

$$$$

FYI, the data here is from BigSolDB 2.1.
